Every entry's value here was drawn from paper PMC4336329.

Target: human ether-à-go-go-related gene (hERG) potassium channel (human)
Assay: primary screen, population patch clamp on CHO cells stably expressing hERG; higher = less effect of the substance
The campaign covered roughly 310,000 compounds. About 14,000 (4.5%) showed an effect of 50% or more. Effects have a minus sign here. Shown is part of a subset that was picked to be rich in strong results.
Assign hERG current change (%, negative = inhibition) at 10uM to each entry below.
Write down the numeric answer in % and omit the unit.

Tell me measured hERG current change (%, negative = inhibition) at 10uM for `CC(=O)Nc1cc(C(=O)N2CCCC2)ccc1Sc1ccc(C)cc1` please.
-30.5

Tell me measured hERG current change (%, negative = inhibition) at 10uM for `CC(=O)Nc1cc(C(=O)N2CCC3(CC2)OCCO3)ccc1Sc1ccc(F)cc1` please.
2.37

Tell me measured hERG current change (%, negative = inhibition) at 10uM for `CC(=O)Nc1cc(C(=O)N2CCc3ccccc3C2)ccc1Sc1ccc(C)cc1` please.
-53.6

Tell me measured hERG current change (%, negative = inhibition) at 10uM for `CC(=O)Nc1cc(C(=O)N2CCN(C)CC2)ccc1Sc1ccc(C)cc1` please.
-13.5

----------
Target: human ether-à-go-go-related gene (hERG) potassium channel (human, UniProt Q12809)
Sequence (Q12809 whole entry, looked up): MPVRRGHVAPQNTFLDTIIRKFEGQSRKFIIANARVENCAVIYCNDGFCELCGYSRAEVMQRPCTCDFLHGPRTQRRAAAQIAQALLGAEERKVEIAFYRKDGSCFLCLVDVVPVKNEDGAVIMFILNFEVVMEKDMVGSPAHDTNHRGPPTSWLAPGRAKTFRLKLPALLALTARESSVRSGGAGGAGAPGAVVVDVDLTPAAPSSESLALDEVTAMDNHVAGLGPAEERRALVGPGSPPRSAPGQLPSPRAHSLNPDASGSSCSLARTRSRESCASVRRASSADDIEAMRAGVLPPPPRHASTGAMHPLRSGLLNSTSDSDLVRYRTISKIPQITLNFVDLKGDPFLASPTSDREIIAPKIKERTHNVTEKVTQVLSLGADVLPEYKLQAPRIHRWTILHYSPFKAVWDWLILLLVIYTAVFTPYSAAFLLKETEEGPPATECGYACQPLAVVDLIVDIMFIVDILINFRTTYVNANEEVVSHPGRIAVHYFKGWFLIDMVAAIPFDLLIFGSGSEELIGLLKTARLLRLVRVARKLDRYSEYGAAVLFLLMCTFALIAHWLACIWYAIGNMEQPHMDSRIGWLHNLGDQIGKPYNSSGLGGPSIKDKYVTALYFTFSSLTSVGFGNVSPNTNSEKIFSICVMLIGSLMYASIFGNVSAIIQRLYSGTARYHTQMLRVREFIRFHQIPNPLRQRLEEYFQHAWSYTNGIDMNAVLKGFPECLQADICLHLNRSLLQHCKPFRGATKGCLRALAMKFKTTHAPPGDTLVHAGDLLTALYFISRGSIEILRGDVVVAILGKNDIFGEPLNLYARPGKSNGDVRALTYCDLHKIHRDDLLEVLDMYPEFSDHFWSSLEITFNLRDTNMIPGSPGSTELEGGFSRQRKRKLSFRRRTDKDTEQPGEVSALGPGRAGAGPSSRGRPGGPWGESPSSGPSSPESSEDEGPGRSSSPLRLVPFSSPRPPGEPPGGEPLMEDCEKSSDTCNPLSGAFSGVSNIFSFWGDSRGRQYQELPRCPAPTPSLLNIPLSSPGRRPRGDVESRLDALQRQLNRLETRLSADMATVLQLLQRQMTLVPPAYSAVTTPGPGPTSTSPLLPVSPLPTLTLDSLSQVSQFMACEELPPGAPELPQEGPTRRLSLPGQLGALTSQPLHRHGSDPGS
Experiment: primary screen, population patch clamp on CHO cells stably expressing hERG; higher = less effect of the substance
Out of some 310,000 compounds screened, about 14,000 (4.5%) showed an effect of 50% or more. Effects have a minus sign here. The full list was thinned out, with strong results kept by preference.
Classification field: True = hERG current change (%, negative = inhibition) at 10uM at or over -20%; False = hERG current change (%, negative = inhibition) at 10uM under -20%.

Identify whether the reported hERG current change (%, negative = inhibition) at 10uM of the following molecule is -20% or greater: `C#CCNC(=O)C1=C[C@H](c2cn(C(C)=O)c3ccccc23)[C@@H](CCCO)[C@H](OCC)O1`
False

Identify whether the reported hERG current change (%, negative = inhibition) at 10uM of the following molecule is -20% or greater: COc1cc(NC2c3ccccc3C(=O)N2Cc2ccc3c(c2)OCO3)cc(OC)c1 (stereo not drawn)
False

Identify whether the reported hERG current change (%, negative = inhibition) at 10uM of the following molecule is -20% or greater: `O=C(c1cc(Cl)ccc1Cl)N1CCN(Cc2ccccc2)CC1`
True

Identify whether the reported hERG current change (%, negative = inhibition) at 10uM of the following molecule is -20% or greater: `O=C(c1ccc(F)cc1Cl)N1CCN(CCc2ccccc2)CC1`
False

Identify whether the reported hERG current change (%, negative = inhibition) at 10uM of the following molecule is -20% or greater: `O=C(c1ccc(Br)o1)N1CCN(c2ncccn2)CC1`
True

Identify whether the reported hERG current change (%, negative = inhibition) at 10uM of the following molecule is -20% or greater: Cc1cc(C)c(OCC(O)CN2CCN(c3ccccn3)CC2)c(C)c1.Cl (stereo not drawn)
False

Identify whether the reported hERG current change (%, negative = inhibition) at 10uM of the following molecule is -20% or greater: `Cc1cc(NC(=O)CSc2nc3sc4c(c3c(=O)n2C)CCCC4)no1`
True

Identify whether the reported hERG current change (%, negative = inhibition) at 10uM of the following molecule is -20% or greater: `C/C(CC(=O)N(C(C)C)C(C)C)=N\NC(=O)COc1ccc(Cl)cc1Cl`
False

Identify whether the reported hERG current change (%, negative = inhibition) at 10uM of the following molecule is -20% or greater: `Cc1ccc(OCC(=O)Oc2c(C)cccc2C)cc1`
True

Identify whether the reported hERG current change (%, negative = inhibition) at 10uM of the following molecule is -20% or greater: `Nc1nc(N2CCN(c3ccccc3)CC2)n[nH]1`
True

Identify whether the reported hERG current change (%, negative = inhibition) at 10uM of the following molecule is -20% or greater: `O=C(c1ccccc1)N1CCN(CCc2ccccc2)CC1`
False

Identify whether the reported hERG current change (%, negative = inhibition) at 10uM of the following molecule is -20% or greater: `Cc1ccc(C(=O)CCC(=O)Nc2ccccc2C)cc1C`
True

Identify whether the reported hERG current change (%, negative = inhibition) at 10uM of the following molecule is -20% or greater: `Cc1nnc(NC(=O)CN2CCN(Cc3c(Cl)cccc3Cl)CC2)s1`
True

Identify whether the reported hERG current change (%, negative = inhibition) at 10uM of the following molecule is -20% or greater: `O=C(c1ccc(Br)o1)N1CCN(c2ccccc2F)CC1`
True

Identify whether the reported hERG current change (%, negative = inhibition) at 10uM of the following molecule is -20% or greater: `Cc1cc(C)c(C)c(OCC(=O)N2CCN(c3ccccn3)CC2)c1`
False

Identify whether the reported hERG current change (%, negative = inhibition) at 10uM of the following molecule is -20% or greater: `CCO[C@@H]1OC(C(=O)NCc2ccccc2)=C[C@H](c2ccccc2)[C@H]1CCCO`
True

Identify whether the reported hERG current change (%, negative = inhibition) at 10uM of the following molecule is -20% or greater: `O=C(NCCCN1CCCC1=O)c1csc2ccccc12`
False

Identify whether the reported hERG current change (%, negative = inhibition) at 10uM of the following molecule is -20% or greater: `CCOc1[nH]n(-c2ccccc2)c(=O)c1C=Nc1ccccc1`
True

Identify whether the reported hERG current change (%, negative = inhibition) at 10uM of the following molecule is -20% or greater: `C/C(CC(=O)N(C(C)C)C(C)C)=N\NC(=O)COc1ccc(Br)cc1Br`
False

Identify whether the reported hERG current change (%, negative = inhibition) at 10uM of the following molecule is -20% or greater: COC(=O)c1cc(NC(=O)CC2NCCNC2=O)cc(C(=O)OC)c1 (stereo not drawn)
True

----------
Target: human ether-à-go-go-related gene (hERG) potassium channel (human, UniProt Q12809)
Test: primary screen, population patch clamp on CHO cells stably expressing hERG; higher = less effect of the substance
The campaign covered roughly 310,000 compounds. About 14,000 (4.5%) showed an effect of 50% or more. The effect is printed as a negative number. Shown is part of a subset that was picked to be rich in strong results.
REPORTED PROPERTY: hERG current change (%, negative = inhibition) at 10uM (%)
Write down the numeric answer in % and omit the unit.

Provide hERG current change (%, negative = inhibition) at 10uM, system human ether-à-go-go-related gene (hERG) potassium channel (human, UniProt Q12809), entry `Cc1ccc(Cc2c(C)c(C#N)c3[nH]c4ccccc4n3c2=O)cc1`
11.4

Provide hERG current change (%, negative = inhibition) at 10uM, system human ether-à-go-go-related gene (hERG) potassium channel (human, UniProt Q12809), entry `Cc1ccc(OCc2nnc(SCC(=O)c3ccccc3)n2Cc2ccco2)cc1`
-47.1

Provide hERG current change (%, negative = inhibition) at 10uM, system human ether-à-go-go-related gene (hERG) potassium channel (human, UniProt Q12809), entry `N#CC1=C(N)SC(N)=C(C#N)C1CCc1ccccc1`
26.4

Provide hERG current change (%, negative = inhibition) at 10uM, system human ether-à-go-go-related gene (hERG) potassium channel (human, UniProt Q12809), entry `O=C(O)C(=O)O.O=C(c1ccccc1)c1ccc(OCCCCN2CCCCC2)cc1`
-52.6

Provide hERG current change (%, negative = inhibition) at 10uM, system human ether-à-go-go-related gene (hERG) potassium channel (human, UniProt Q12809), entry `CCOC(=O)/C=C1\SCC(=O)N1CC(=O)NC(c1ccccc1)c1ccccc1`
-52.2

Provide hERG current change (%, negative = inhibition) at 10uM, system human ether-à-go-go-related gene (hERG) potassium channel (human, UniProt Q12809), entry `CCOC(=O)/C=C1\SCC(=O)N1CC(=O)NC(C)C`
21.2

Provide hERG current change (%, negative = inhibition) at 10uM, system human ether-à-go-go-related gene (hERG) potassium channel (human, UniProt Q12809), entry `Cc1ccc(C(=O)n2c3ccccc3c3ccccc32)cc1`
15.9

Provide hERG current change (%, negative = inhibition) at 10uM, system human ether-à-go-go-related gene (hERG) potassium channel (human, UniProt Q12809), entry O=C(NCCNC1CCC(c2ccccc2)CC1)c1ccc(F)cc1 (centres unmarked)
-58.3

Provide hERG current change (%, negative = inhibition) at 10uM, system human ether-à-go-go-related gene (hERG) potassium channel (human, UniProt Q12809), entry `CCCCOc1ccc(C(=O)CCN2CCCCC2)cc1.Cl`
-61.5

Provide hERG current change (%, negative = inhibition) at 10uM, system human ether-à-go-go-related gene (hERG) potassium channel (human, UniProt Q12809), entry CCOC(=O)/C=C1\SCC(=O)N1CC(=O)NC(C)c1ccccc1 (centres unmarked)
-15.2

Provide hERG current change (%, negative = inhibition) at 10uM, system human ether-à-go-go-related gene (hERG) potassium channel (human, UniProt Q12809), entry O=C(NCCNC1CCC(c2ccccc2)CC1)c1cccs1 (centres unmarked)
-35.2

Provide hERG current change (%, negative = inhibition) at 10uM, system human ether-à-go-go-related gene (hERG) potassium channel (human, UniProt Q12809), entry `COc1cccc(NC(=O)COc2c(F)c(F)c(C(F)(F)F)c(F)c2F)c1`
8.02

Provide hERG current change (%, negative = inhibition) at 10uM, system human ether-à-go-go-related gene (hERG) potassium channel (human, UniProt Q12809), entry `Nc1nonc1-n1nncc1-c1ccccc1`
1.98

Provide hERG current change (%, negative = inhibition) at 10uM, system human ether-à-go-go-related gene (hERG) potassium channel (human, UniProt Q12809), entry `CCOc1ccc(C(=O)CCN2CCCCCC2)cc1.Cl`;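 further: peak tail current of the secondary pulse compared with the same well before compound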
-38.4

Provide hERG current change (%, negative = inhibition) at 10uM, system human ether-à-go-go-related gene (hERG) potassium channel (human, UniProt Q12809), entry `Cc1ccc2nc3c(cc(C(=O)NC4CCCC4)c(=N)n3CCCn3ccnc3)c(=O)n2c1`;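 further: peak tail current of the secondary pulse compared with the same well before compound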
-58.6

Provide hERG current change (%, negative = inhibition) at 10uM, system human ether-à-go-go-related gene (hERG) potassium channel (human, UniProt Q12809), entry `COCCNC(=O)Cn1nc(-c2ccc(C)cc2)ccc1=O`;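 further: peak tail current of the secondary pulse compared with the same well before compound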
8.83

Provide hERG current change (%, negative = inhibition) at 10uM, system human ether-à-go-go-related gene (hERG) potassium channel (human, UniProt Q12809), entry `CCSCCc1nnc(NC(=O)Nc2cccc(C(F)(F)F)c2)s1`;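 further: peak tail current of the secondary pulse compared with the same well before compound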
15.2
